Measured Emax, listed per entry for reference.
Target: ligand binding domain of human FXR (Homo sapiens (Human))
Sequence (Q96RI1 262-486): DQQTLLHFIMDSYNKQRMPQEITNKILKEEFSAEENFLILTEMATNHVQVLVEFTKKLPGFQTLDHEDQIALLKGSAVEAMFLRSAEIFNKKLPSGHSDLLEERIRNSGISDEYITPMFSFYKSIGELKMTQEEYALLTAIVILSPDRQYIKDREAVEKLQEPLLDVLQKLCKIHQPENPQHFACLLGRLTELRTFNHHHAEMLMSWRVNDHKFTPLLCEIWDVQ
Assay: FXR ligand binding assay (LanthaScreen FRET)
Details: read-out: % Efficacy

compound: O=C(O)c1cc(F)c2nc(N3[C@@H]4CC[C@H]3C[C@@H](OC(=O)c3c(-c5ccccc5)noc3C3CC3)C4)sc2c1 [Compound I-13]
Emax, %: 40
//
compound: O=C(O)c1cc(F)c2nc(N3[C@@H]4CC[C@H]3C[C@@H](OC(=O)c3c(-c5c(Cl)cccc5OC(F)F)noc3C3CC3)C4)sc2c1 [Compound I-15]
Emax, %: 71
//
compound: O=C(O)c1cc(F)c2nc(N3[C@@H]4CC[C@H]3C[C@@H](OC(=O)c3c(-c5c(Cl)cccc5Cl)noc3C3CCC3)C4)sc2c1 [Compound I-24]
Emax, %: 64
//
compound: CC(C)(C)c1onc(-c2c(Cl)cccc2Cl)c1C(=O)OC1C[C@H]2CC[C@@H](C1)N2c1nc2c(F)cc(C(=O)O)cc2s1 (single isomer, unassigned) [Compound I-25]
Emax, %: 56
//
compound: Cc1onc(-c2c(Cl)cccc2Cl)c1C(=O)O[C@H]1C[C@H]2CC[C@@H](C1)N2c1nc2c(F)cc(C(=O)O)cc2s1 [Compound I-23]
Emax, %: 37
//
compound: CC1(c2onc(-c3c(Cl)cccc3Cl)c2C(=O)OC2C[C@H]3CC[C@@H](C2)N3c2nc3c(F)cc(C(=O)O)cc3s2)CC1 (single isomer, unassigned) [Compound I-26]
Emax, %: 75

----------
Target: human Famesoid X receptor ligand-binding domain/Gal4 DNA binding domain chimera (Homo sapiens (Human), UniProt Q96RI1)
Sequence (Q96RI1 262-486, change not shown): as the sequence (Q96RI1 262-486) above
Experiment: Cellular FXR beta-lactamase reporter assay (FXR-UAS-bla HEK 293T)
Assay type: cell-based
Conditions: extent of activation relative to GW4064

smiles-representation: O=C(O)c1cc(F)c2nc(N3[C@@H]4CC[C@H]3C[C@@H](OC(=O)c3c(C56CCC(CC5)CC6)noc3C3CC3)C4)sc2c1
% Efficacy [%]: 22

smiles-representation: CCCCCS(=O)(=O)NC(=O)c1ccc(N2[C@@H]3CC[C@H]2C[C@@H](OC(=O)c2c(-c4c(Cl)cccc4Cl)noc2C2CC2)C3)cc1
% Efficacy [%]: 110

smiles-representation: O=C(NS(=O)(=O)C1CC1)c1ccc(N2[C@@H]3CC[C@H]2C[C@H](OC(=O)c2c(-c4c(Cl)cccc4Cl)noc2C2CC2)C3)cc1
% Efficacy [%]: 130

smiles-representation: CCCS(=O)(=O)NC(=O)c1ccc(N2[C@@H]3CC[C@H]2C[C@@H](OC(=O)c2c(-c4c(Cl)cccc4Cl)noc2C2CC2)C3)cc1
% Efficacy [%]: 128
